These data points were gathered from patent US9163003B2.

System: Non-small lung cancer ABC-1 cells
Test: Cellular proliferation assay, ABC-1 cells (CellTiter-Glo)
Format: cell-based
Conditions: Homo sapiens, 72 h, 3 days of compound treatment
Experimental: Non-small lung cancer ABC-1 cells were plated at 5000 cells per well in 96-well plates and treated with 8 serial compound dilutions starting from 10 μM as the highest concentration. Viable cells were measured after 3 days of compound treatment using the CellTiter-Glo assay (Promega, G7570). Assay was performed following the manufacture protocol.
# IC50 per entry
Number only, in nM; omit the unit.

Example cases with answers are listed next.
COMPOUND	ENDPOINT_UNIT	IC50
COc1ccc(C(=O)C2CCN(C3CCN(Cc4nc5ccccc(=O)c5[nH]4)C3=O)CC2)cc1 (stereo not shown)	nM	1.5
O=C(c1ccc(F)cc1)C1CCN([C@H]2CCN(Cc3nc4c(c(=O)[nH]3)COCC4)C2=O)CC1	nM	301

Next compound, please.
Entry O=C(c1ccc(Cl)cc1)C1CCN(C2CCN(Cc3nc4c(c(=O)[nH]3)COCC4)C2=O)CC1 (stereo not shown) has what IC50? 60

###

Test system: Non-small lung cancer ABC-1 cells
Assay: Cellular proliferation assay, ABC-1 cells (CellTiter-Glo)
Assay type: cell-based
Conditions: Homo sapiens, 72 h, 3 days of compound treatment
OBSERVED_PROPERTY: pIC50
A value of pIC50 is the negative decimal logarithm of a concentration given in moles per litre.

Example cases with answers are listed next.
COMPOUND	pIC50
COc1ccc(C(=O)C2CCN([C@@H]3CCN(Cc4nc5ccccc(=O)c5[nH]4)C3=O)CC2)cc1C	8.00
COc1ccc(C(=O)C2CCN(C3CCN(CC(=O)Nc4nncc5c4CCCO5)C3=O)CC2)cc1 (centres unmarked)	5.65
COc1ccc(C(=O)C2CCN([C@@H]3CCN(Cc4nc5c(c(=O)[nH]4)COCC5)C3=O)CC2)cc1C	6.83
COc1ccc(C(=O)C2CCN(C3CCN(Cc4nc5sc(C)cc5c(=O)[nH]4)C3=O)CC2)cc1 (centres unmarked)	6.88
COc1ccc(C(=O)C2CCN([C@H]3CCN(Cc4nc5ccccc(=O)c5[nH]4)C3=O)CC2)cc1	9.07

What value of pIC50 on Non-small lung cancer ABC-1 cells does COc1ccc(C(=O)C2CCN([C@H]3CCN(Cc4nc5c(c(=O)[nH]4)COCC5)C3=O)CC2)cc1 have? 7.92

Cool, now COc1ccc(C(=O)C2CCN(C3CCN(Cc4cccc(Cl)c4C#N)C3=O)CC2)cc1 (centres unmarked) 6.39

Cool, now COc1ccc(C(=O)C2CCN(C3CCN(CC(=O)Nc4nnc5n4CCS5)C3=O)CC2)cc1 (centres unmarked) 7.12

###

Molecular target: PARP2 (Mus musculus (Mouse))
Sequence (O88554 whole entry): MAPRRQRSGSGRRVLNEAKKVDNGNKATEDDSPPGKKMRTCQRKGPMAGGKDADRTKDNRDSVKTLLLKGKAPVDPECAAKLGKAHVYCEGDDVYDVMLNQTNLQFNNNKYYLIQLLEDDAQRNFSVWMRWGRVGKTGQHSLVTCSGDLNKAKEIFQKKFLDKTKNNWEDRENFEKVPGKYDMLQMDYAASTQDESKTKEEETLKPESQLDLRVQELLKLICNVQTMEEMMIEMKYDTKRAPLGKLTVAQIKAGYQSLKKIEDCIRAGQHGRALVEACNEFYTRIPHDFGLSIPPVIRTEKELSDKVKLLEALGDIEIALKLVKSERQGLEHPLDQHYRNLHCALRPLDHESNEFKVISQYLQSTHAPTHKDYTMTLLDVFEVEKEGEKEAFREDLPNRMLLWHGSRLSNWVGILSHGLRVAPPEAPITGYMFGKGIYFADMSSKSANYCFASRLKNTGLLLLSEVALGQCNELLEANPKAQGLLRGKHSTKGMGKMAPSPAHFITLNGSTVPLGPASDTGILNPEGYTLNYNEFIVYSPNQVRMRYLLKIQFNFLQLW
I'd appreciate it if you marked entries t when IC50 is lower than 5 µM and f when it is not.

MOLECULE	LABEL_VALUE
COc1ccc(C(=O)C2CCN([C@@H]3CCN(Cc4nc5ccccc(=O)c5[nH]4)C3=O)CC2)cc1	f
COc1ccc(C(=O)C2CCN(C3CCN(Cc4ncc(C)c(=O)[nH]4)C3=O)CC2)cc1 (stereo not shown)	f
COc1ccc(C(=O)C2CCN([C@H]3CCN(Cc4nc5c(c(=O)[nH]4)COCC5)C3=O)CC2)cc1	t
COc1ccc(C(=O)C2CCN([C@H]3CCN(Cc4nc5c(c(=O)[nH]4)COCC5)C3=O)CC2)cc1C	t
COc1ccc(C(=O)C2CCN([C@H]3CCN(Cc4nc5ccccc(=O)c5[nH]4)C3=O)CC2)cc1C	t

Turning now to a further record.
Please check: IC50 for O=C(c1ccc(F)cc1)C1CCN([C@H]2CCN(Cc3nc4c(c(=O)[nH]3)COCC4)C2=O)CC1 , strictly under 5 µM or not? f
